- Tested on: SK-MEL-5
- measurement.description: NCI tumour cell line growth inhibition, 48 h
Active and inactive are the calls of the source. Rule as the data show it: active = GI50 up to about 1.1 µM and inactive = higher.

{"compound": "COc1ccc2cc1Oc1ccc(cc1)C[C@H]1c3cc(c(OC)cc3CCN1C)Oc1c(O)c(OC)cc3c1[C@H](C2)N(C)CC3 [FANGCHINOLINE]", "GI50": "13.6 µM (inactive)"}
{"compound": "COC(=O)C(=C/c1ccc(OC)cc1)/C(C(=O)O)=C(/C)c1ccccc1", "GI50": "> 100 µM (inactive)"}
{"compound": "CC1C[C@]2(C[C@@H](C)C(=O)O2)OC2CC3(C)C4CCC5C(C)(C)OC(=O)CC[C@@]56C[C@@]46CC[C@]3(C)C12 (some centres not stated)", "GI50": "> 100 µM (inactive)"}
{"compound": "O=C(NCCCCl)c1c(O)c2ccccc2[nH]c1=O", "GI50": "> 100 µM (inactive)"}
{"compound": "O=C(NO)c1ccc(OCc2ccccc2)cc1", "GI50": "45.6 µM (inactive)"}
{"compound": "COc1ccc2c(c1)C1=NCCN(C)c3ccc([N+](=O)[O-])c(c31)N2", "GI50": "1.45 µM (inactive)"}
{"compound": "O=Cc1cn(CCCCCCCCn2cc(C=O)c3ccccc32)c2ccccc12", "GI50": "4.17 µM (inactive)"}
